Data origin: patent US20120135959A1

ASSAY TARGET: MMP-3 (Homo sapiens, UniProt P08254)
Construct: purchased Biomol Research Laboratories
Sequence (P08254 100-477): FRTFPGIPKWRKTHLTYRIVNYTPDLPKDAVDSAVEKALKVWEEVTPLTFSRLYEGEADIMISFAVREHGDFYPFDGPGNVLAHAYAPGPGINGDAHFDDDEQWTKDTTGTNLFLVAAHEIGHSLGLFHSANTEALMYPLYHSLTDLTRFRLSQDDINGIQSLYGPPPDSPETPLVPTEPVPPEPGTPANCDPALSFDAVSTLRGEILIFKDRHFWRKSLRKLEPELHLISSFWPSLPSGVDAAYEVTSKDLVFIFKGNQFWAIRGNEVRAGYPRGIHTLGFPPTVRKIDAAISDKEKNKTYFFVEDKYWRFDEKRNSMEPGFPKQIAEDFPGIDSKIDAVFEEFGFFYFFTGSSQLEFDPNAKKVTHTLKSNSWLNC
ASSAY REMARKS: biochemical
Format: biochemical
Would you mind telling me the reported potency v. AHA of each entry?

Quick check: potency v. AHA on MMP-3 (Homo sapiens, UniProt P08254), item C1CNCCNCCN1 [ZBG 2] ? 19-fold

Value wanted: potency v. AHA (MMP-3 (Homo sapiens, UniProt P08254)) of entry O=C(O)c1ccccn1 [ZBG 1, picolinic acid] 139-fold

Reported potency v. AHA for MMP-3 (Homo sapiens, UniProt P08254), given C1CNCCNCCNCCN1 [ZBG 4, cyclen] ? 163-fold

So what potency v. AHA did O=C(O)CNCC(=O)O [ZBG 6, aminodiacetic acid] get with MMP-3 (Homo sapiens, UniProt P08254)? 139-fold

For the record O=C(O)c1cccc(C(=O)O)n1 [ZBG 3, dipicolenic acid] , what value of potency v. AHA is listed for MMP-3 (Homo sapiens, UniProt P08254)? 4-fold

====

ASSAY TARGET: MMP-3 (Homo sapiens, UniProt P08254)
Construct: purchased Biomol Research Laboratories
ASSAY REMARKS: biochemical
Format: biochemical
Please provide measured IC50 for the entries that follow.
Provide only the numeric value, understood in mM.

Consider the compound `O=C(O)c1ccccn1` and give its measured IC50. 0.181

I have this compound here, CC(=O)NO [AHA, acetohydroxamic acid, reference compound] , and I need its recorded IC50. 25.1

====

ASSAY TARGET: MMP-1 (Homo sapiens)
SETTINGS: read-out: MMP-1 IC50; fluorescence-based assay, pH 7.5, 1 h preincubation at 37° C.; at least three independent experiments; spread in brackets
MEASURE: pIC50
// pIC50 is dimensionless: -log10 of concentration (M)

Please give the measured pIC50 for this compound: `C1CNCCNCCNCCN1` 3.37

Find the recorded pIC50 belonging to `C1CNCCNCCN1` and report it. 2.25

Which pIC50 reading was recorded for the compound `O=C(O)CNCC(=O)O` ? 3.29

Item under review: `O=C(O)c1cccc(C(=O)O)n1` . Reported pIC50? 1.87

State the recorded pIC50 for this entry: `c1ccc(CNCc2ccccn2)nc1` 4.20

====

Can you tell me pIC50 for the items I'm about to list?
ASSAY TARGET: recombinant anthrax lethal factor (Bacillus anthracis)
Sequence (P15917 34-809 limits assumed): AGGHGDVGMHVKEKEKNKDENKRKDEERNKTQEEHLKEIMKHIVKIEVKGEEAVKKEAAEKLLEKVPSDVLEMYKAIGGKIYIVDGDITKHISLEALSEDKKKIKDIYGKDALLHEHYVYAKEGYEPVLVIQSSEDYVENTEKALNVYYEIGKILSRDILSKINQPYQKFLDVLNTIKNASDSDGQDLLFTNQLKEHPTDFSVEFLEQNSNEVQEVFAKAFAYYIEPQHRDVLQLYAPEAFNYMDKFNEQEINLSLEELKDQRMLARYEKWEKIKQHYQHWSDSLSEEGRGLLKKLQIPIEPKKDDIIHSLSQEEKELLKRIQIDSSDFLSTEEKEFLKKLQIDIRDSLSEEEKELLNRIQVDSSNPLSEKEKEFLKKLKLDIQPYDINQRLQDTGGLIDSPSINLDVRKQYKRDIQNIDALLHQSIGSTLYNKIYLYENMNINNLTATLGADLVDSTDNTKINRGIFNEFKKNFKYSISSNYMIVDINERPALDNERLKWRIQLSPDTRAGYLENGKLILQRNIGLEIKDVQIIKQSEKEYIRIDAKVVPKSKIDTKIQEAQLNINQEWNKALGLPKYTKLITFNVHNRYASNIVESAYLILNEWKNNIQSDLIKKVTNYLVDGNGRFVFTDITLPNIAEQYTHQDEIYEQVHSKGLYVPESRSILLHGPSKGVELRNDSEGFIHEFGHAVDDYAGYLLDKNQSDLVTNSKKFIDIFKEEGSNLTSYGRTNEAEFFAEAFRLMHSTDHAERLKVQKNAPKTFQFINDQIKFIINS
ASSAY REMARKS: biochemical
Assay type: biochemical
SETTINGS: pH 7; read-out: LF IC50
To interpret pIC50, take it as minus log10 of a concentration measured in moles per litre.

Find pIC50 (recombinant anthrax lethal factor (Bacillus anthracis)) for the entry CC(=O)NO [AHA, acetohydroxamic acid, reference compound] 1.94

What reported pIC50 corresponds to `C1CNCCNCCNCCN1` on recombinant anthrax lethal factor (Bacillus anthracis)? 2.24

recombinant anthrax lethal factor (Bacillus anthracis) / pIC50 / `C1CNCCNCCN1` : value? 2.89

# query: pIC50 | item `O=C(O)c1cccc(C(=O)O)n1` | system: recombinant anthrax lethal factor (Bacillus anthracis) 2.57

Missing value: pIC50, recombinant anthrax lethal factor (Bacillus anthracis), entry `O=C(O)CNCC(=O)O` . Fill in? 3.03

====

ASSAY TARGET: MMP-3 (Homo sapiens)
Construct: purchased Biomol Research Laboratories
ASSAY REMARKS: biochemical
Format: biochemical
SETTINGS: pH 6; read-out: MMP-3 IC50
Kindly state IC50 for each of the entries shown.
# number only, unit µM dropped from output

// lookup IC50 for O=C(O)c1cccc(C(=O)O)n1 [ZBG 3, dipicolenic acid] 6100

Entry under review: C1CNCCNCCNCCN1 [ZBG 4, cyclen] . Reported IC50? 154

Look up IC50 for this molecule: O=C(O)CNCC(=O)O [ZBG 6, aminodiacetic acid] 180

Would you kindly share the measured IC50 for C1CNCCNCCN1 [ZBG 2] ? 1350

====

ASSAY TARGET: MMP-1 (Homo sapiens)
Sequence (P03956 100-469): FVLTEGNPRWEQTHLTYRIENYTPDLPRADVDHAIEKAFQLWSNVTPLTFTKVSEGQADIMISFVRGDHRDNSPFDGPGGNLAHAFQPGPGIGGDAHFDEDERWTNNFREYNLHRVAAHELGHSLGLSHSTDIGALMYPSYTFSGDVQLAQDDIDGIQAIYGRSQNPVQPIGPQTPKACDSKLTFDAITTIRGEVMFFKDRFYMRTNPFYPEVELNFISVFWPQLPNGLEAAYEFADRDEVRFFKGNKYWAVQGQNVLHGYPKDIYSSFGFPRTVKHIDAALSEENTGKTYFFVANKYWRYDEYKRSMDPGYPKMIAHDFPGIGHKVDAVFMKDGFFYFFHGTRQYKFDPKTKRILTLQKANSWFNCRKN
SETTINGS: based on MMP-1 IC50
MEASURE: potency v. AHA

I'd like to know its potency v. AHA. The compound in question is `O=C(O)CNCC(=O)O` 82-fold

Name the recorded potency v. AHA for `C1CNCCNCCN1` . 7-fold

Entry `O=C(O)c1cccc(C(=O)O)n1` has what potency v. AHA? 3-fold

Item `C1CNCCNCCNCCN1` has what recorded potency v. AHA? 98-fold

What potency v. AHA value was documented for this compound, `O=C(O)c1ccccn1` ? 17-fold
